biological target: Human factor D (Homo sapiens, UniProt P00746); construct: purified from human serum; test: biochemical
Sequence (P00746 26-253): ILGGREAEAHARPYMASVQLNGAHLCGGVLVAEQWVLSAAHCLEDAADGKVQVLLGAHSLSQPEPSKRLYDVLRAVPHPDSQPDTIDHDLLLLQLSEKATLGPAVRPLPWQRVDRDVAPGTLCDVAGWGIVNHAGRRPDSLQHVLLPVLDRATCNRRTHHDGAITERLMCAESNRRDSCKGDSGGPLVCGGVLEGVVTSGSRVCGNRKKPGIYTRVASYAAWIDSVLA
pIC50: −log10 of the molar value.
readout.kind: pIC50

**Query** Form field: reported pIC50 of CCOP(=O)(OCC)c1ccc2c(C(C)=O)cn(CC(=O)N3[C@@H]4CCC[C@@H]4C[C@H]3C(=O)NCc3cccc(Cl)c3F)c2c1 [Compound 5]
**Result** 5.00 to 6.00

These data points were gathered from patent US20160362432A1.
